# Assay: Volume of distribution at steady state in cynomolgus monkey at 0.1 mg/kg, iv measured up to 24 hrs by LC-MS analysis
# Assay type: ADME, organism-based, Macaca fascicularis
# Particulars: in vivo, read-out: Vdss
Result type: Vd (L/kg)
Quick reminder: number only, in L/kg, skip the unit.

What value of Vd has been reported for the following compound? "C[C@H]([C@H](C(=O)Nc1cc([C@@H](CC(=O)O)C2CC2)ccc1Cl)c1ccc(Cl)cc1)C(F)(F)F"
1.4

###

# Assay: Half life in cynomolgus monkey at 0.1 mg/kg, iv measured up to 24 hrs by LC-MS analysis
# Format: ADME, organism-based, Macaca fascicularis
# Particulars: in vivo
Result type: half-life (h)
Quick reminder: number only, in h, skip the unit.

What value of half-life has been reported for the following molecule? C[C@H]([C@H](C(=O)Nc1cc([C@@H](CC(=O)O)C2CC2)ccc1Cl)c1ccc(Cl)cc1)C(F)(F)F [RUNCACIGUAT]
10

###

# System: Aorta
# Assay: Vasorelaxant activity in Chinchilla rabbit aortic ring assessed as inhibition of phenylephrine-induced contractions
# Format: functional, tissue-based
# Particulars: Oryctolagus cuniculus
Result type: pIC50
Scale note: pIC50 = -log10(concentration in M).

What value of pIC50 has been reported for the following molecule? C[C@H]([C@H](C(=O)Nc1cc([C@@H](CC(=O)O)C2CC2)ccc1Cl)c1ccc(Cl)cc1)C(F)(F)F [RUNCACIGUAT]
7.41

###

# Assay: Oral bioavailability in cynomolgus monkey at 0.1 mg/kg measured up to 24 hrs by LC-MS analysis
# Type: ADME, organism-based, Macaca fascicularis
# Particulars: in vivo
Result type: bioavailability
Output should be the measured figure followed by the unit it is expressed in.

What value of bioavailability has been reported for the following compound? "C[C@H]([C@H](C(=O)Nc1cc([C@@H](CC(=O)O)C2CC2)ccc1Cl)c1ccc(Cl)cc1)C(F)(F)F"
81%

###

# Assay: Half life in Beagle dog at 0.3 mg/kg, iv measured up to 24 hrs by LC-MS analysis
# Type: ADME, organism-based, Canis lupus familiaris
# Particulars: in vivo
Result type: half-life (h)
Quick reminder: number only, in h, skip the unit.

What value of half-life has been reported for the following compound? "C[C@H]([C@H](C(=O)Nc1cc([C@@H](CC(=O)O)C2CC2)ccc1Cl)c1ccc(Cl)cc1)C(F)(F)F"
4.3

###

# Assay: Volume of distribution at steady state in Beagle dog at 0.3 mg/kg, iv measured up to 24 hrs by LC-MS analysis
# Assay type: ADME, organism-based, Canis lupus familiaris
# Particulars: in vivo, read-out: Vdss
Result type: Vd
Output should be the measured figure followed by the unit it is expressed in.

What value of Vd has been reported for the following molecule? "C[C@H]([C@H](C(=O)Nc1cc([C@@H](CC(=O)O)C2CC2)ccc1Cl)c1ccc(Cl)cc1)C(F)(F)F"
2.8 L/kg

###

# Assay: Oral bioavailability in Beagle dog at 0.1 mg/kg measured up to 24 hrs by LC-MS analysis
# Assay type: ADME, organism-based, Canis lupus familiaris
# Particulars: in vivo
Result type: bioavailability (%)
Quick reminder: number only, in %, skip the unit.

What value of bioavailability has been reported for the following compound? "C[C@H]([C@H](C(=O)Nc1cc([C@@H](CC(=O)O)C2CC2)ccc1Cl)c1ccc(Cl)cc1)C(F)(F)F"
48

Reference for the values: ChEMBL document CHEMBL4808182
